biological target: STK17B (human); test: KINOMEscan competition binding; settings: compound 10.0 µM
Parameter measured: kinase still bound, per cent of control

>>> df
                                   compound                       parameter_measured  reported_value
0  COc1cc(C(=O)NC2CCN(C)CC2)ccc1Nc1ncc2c(n1)N(C1CCCC1)C(C)CC(=O)N2C (stereo not given)  kinase still bound, per cent of control            100%
1  O=C(NC1CC1)c1cccc(-c2ccc3c(NC(=O)C4CC4)n[nH]c3c2)c1  kinase still bound, per cent of control            100%
2  Nc1ccc(-c2ccc3ncc4ccc(=O)n(-c5cccc(C(F)(F)F)c5)c4c3c2)cn1  kinase still bound, per cent of control             89%
3  C=CC(=O)Nc1cccc(Oc2nc(Nc3ccc(N4CCN(C)CC4)cc3OC)ncc2Cl)c1  kinase still bound, per cent of control            100%
4  C[C@@H](Oc1cc(-n2cnc3ccc(CN4CCN(C)CC4)cc32)sc1C(N)=O)c1ccccc1C(F)(F)F  kinase still bound, per cent of control            100%

* * *

molecular target: GRK1 (human) (UniProt Q15835); assay: KINOMEscan competition binding; settings: compound 10.0 µM
Sequence (Q15835 whole entry, looked up): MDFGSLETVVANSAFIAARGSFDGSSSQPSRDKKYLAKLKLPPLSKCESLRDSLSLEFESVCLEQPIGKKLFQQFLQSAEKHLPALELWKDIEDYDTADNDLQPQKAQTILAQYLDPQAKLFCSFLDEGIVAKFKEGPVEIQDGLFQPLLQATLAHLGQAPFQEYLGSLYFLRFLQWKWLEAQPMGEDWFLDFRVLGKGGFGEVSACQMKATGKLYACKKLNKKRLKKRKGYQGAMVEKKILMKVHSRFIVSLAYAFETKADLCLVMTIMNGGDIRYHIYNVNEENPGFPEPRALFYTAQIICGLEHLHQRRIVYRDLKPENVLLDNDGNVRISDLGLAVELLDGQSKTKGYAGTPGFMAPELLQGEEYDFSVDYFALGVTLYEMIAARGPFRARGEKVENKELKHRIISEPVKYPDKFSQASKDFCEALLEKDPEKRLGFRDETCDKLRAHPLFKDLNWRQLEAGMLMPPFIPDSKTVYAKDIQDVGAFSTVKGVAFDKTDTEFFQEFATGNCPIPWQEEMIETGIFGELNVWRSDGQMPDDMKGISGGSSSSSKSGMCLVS
Examples of compounds with documented kinase still bound, per cent of control follow.
Parameter measured: kinase still bound, per cent of control (%)

>>> print(df.to_string())
                         structure_notation  u  reported_value
0  O=C(NC1CC1)c1cccc(-c2ccc3c(NC(=O)C4CC4)n[nH]c3c2)c1  %             100
1  Cc1ccc(NC(=O)c2cccc(C(C)(C)C#N)c2)cc1Nc1ccc2ncn(C)c(=O)c2c1  %             100
2  COc1cc(N2CCN(C)CC2)ccc1Nc1nc(N)c(C(=O)c2c(Cl)cccc2Cl)s1  %             100
3  O=C(O)c1ccc(Nc2ncc3c(n2)-c2ccc(Cl)cc2C(c2c(F)cccc2F)=NC3)cc1  %             100
4  CCC(=O)N1CCN(c2ccc(-n3c(=O)ccc4cnc5ccc(-c6cnc7ccccc7c6)cc5c43)cc2C(F)(F)F)CC1  %              99
5  COc1cc(C(=O)NC2CCN(C)CC2)ccc1Nc1ncc2c(n1)N(C1CCCC1)CCC(=O)N2C(C)C  %             100
6  Cc1cc([C@@H](C)Nc2ccccc2C(=O)O)c2nc(N3CCOCC3)cc(=O)n2c1  %             100
7  C=CC(=O)Nc1cccc(Nc2nc(N[C@H]3CC[C@H](N(C)C)CC3)nc3c2ncn3C(C)C)c1  %              47
8    N#Cc1c(NC(=O)c2cccc3ccccc23)sc2c1CCCC2  %             100

* * *

Examples of compounds with documented kinase still bound, per cent of control follow.
molecular target: CSNK1G1 (human); test: KINOMEscan competition binding; details: compound 10.0 µM
Parameter measured: kinase still bound, per cent of control

>>> df
                                   compound  reported_value
0  COc1cc(C(=O)NC2CCN(C)CC2)ccc1Nc1ncc2c(n1)N(C1CCCC1)C(C)CC(=O)N2C (centres undefined)            100%
1  O=C(O)c1ccc(Nc2ncc3c(n2)-c2ccc(Cl)cc2C(c2c(F)cccc2F)=NC3)cc1             37%
2  Cn1c(=O)n(-c2ccc(C(C)(C)C#N)cc2)c2c3cc(-c4cnc5ccccc5c4)ccc3ncc21            100%
3  COc1cc(C(=O)NC2CCN(C)CC2)ccc1Nc1ncc2c(n1)N(C1CCCC1)CCC(=O)N2C(C)C            100%

Data credit: the kinase profiling compilation of Christmann-Franck et al. (2016)
